Origin of the recorded values: the supplement of paper PMC9233669

# System: biotinyl-Ile-oxazolone
# method notes: self-aminoacylation, catalytic enhancement (BIO) (fold over background); higher = more active; k-Seq, kA / k0A0; sequences stand for … in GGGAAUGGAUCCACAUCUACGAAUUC…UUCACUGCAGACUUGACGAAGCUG
Fewer inactive variants are shown than the library holds.
Classify as follows. Reported self-aminoacylation greater than or equal to 3: Yes. Reported self-aminoacylation below: No.

Quick check, self-aminoacylation >= 3? CCACACCUCAAGCGAUCGGUC [Fam1B.1 aminoacylation ribozyme variant]
No

* * *

self-aminoacylation overview
# System: biotinyl-Trp-oxazolone
# method notes: self-aminoacylation, catalytic enhancement (BWO) (fold over background); higher = more active; k-Seq, kA / k0A0; sequences stand for … in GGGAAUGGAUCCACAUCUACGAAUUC…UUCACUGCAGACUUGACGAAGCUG
This sample holds only a part of the variants without activity.
API doc: respond with a numeric literal and nothing else, no unit.

Some solved entries appear below for comparison.
AUUAACCUAGGUCGUCGGGUG [Fam2.2 aminoacylation ribozyme variant] ... 1.42
AAGUUUGCUAGUAGUUGCAAG [Fam3.1 aminoacylation ribozyme variant] ... 1.1
UCACACUUCAAGCCAUCGGUC [Fam1B.1 aminoacylation ribozyme variant] ... 0.854
AUUACCCUGGUCAUUAAGUGA [Fam2.1 aminoacylation ribozyme variant] ... 13.4
AUGCCCCUGGUCAUCGAGUGA [Fam2.1 aminoacylation ribozyme variant] ... 10
AAGGUUGCUAAUAGGCGCAAG [Fam3.1 aminoacylation ribozyme variant] ... 1.17
UAGGUUGCUAAUAGUCGCAAG [Fam3.1 aminoacylation ribozyme variant] ... 2.01
CCAGACUUCAAGCGAUCGGUC [Fam1B.1 aminoacylation ribozyme variant] ... 1.82

With those in mind, consider the next sequence.
Which self-aminoacylation reading was recorded for the sequence CUUCACCUAGGUCCUCGGGUG [Fam2.2 aminoacylation ribozyme variant] ?
6.69
